- Test system: UACC-257
- Measurement description: NCI tumour cell line growth inhibition, 48 h
Active and inactive are the calls of the source. Rule as the data show it: active = GI50 up to about 1.1 µM and inactive = higher.
Parameter call: string, one of 1 (yes) (active), 0 (no) (inactive)

A selection of reference data follows.
In [3]: df
Out[3]:
                                   compound  target_or_system  class_label
0                       COC(=O)CC(SCCO)SCCO          UACC-257       0 (no)
1     Fc1ccc(-c2sc(-c3cccs3)cc2Cc2cccs2)cc1          UACC-257       0 (no)
2                COc1cccc2c1CCc1ccccc1CC2=O          UACC-257       0 (no)
3  O=C1CSC(/C=C/c2ccccc2)N1c1ccc(-c2ccc(-n3c(-c4ccccc4)nc4ccccc4c3=O)cc2)cc1 (configuration not stated)          UACC-257       0 (no)
4     Cc1nn(-c2ccccc2)c2c1CC(=O)Nc1ccccc1-2          UACC-257      1 (yes)
5  COc1c(C)c(C/C=C(\C)CC/C=C(\C)CC/C=C(\C)CCC=C(C)C)c(OC)c2ccccc12          UACC-257       0 (no)
6           N[C@H](C(=O)O)[C@@H](Cl)CC(=O)O          UACC-257       0 (no)
7  CC[N+]1(C)CCC(O)(c2ccc(C)cc2)C(C(=O)c2ccc(C)cc2)C1 (configuration not stated)          UACC-257       0 (no)

query: Returns: the outcome recorded for N#Cc1c(N)nc(-c2ccc(Cl)cc2)c2c1-c1ccccc1S(=O)(=O)CC2 in this assay.
result: 0 (no)

query: Returns: the outcome recorded for CC(C)(C)CNC(=O)NCn1cc(-c2ccccc2)nn1 in this assay.
result: 0 (no)

query: Returns: the outcome recorded for O=[N+]([O-])C1(C2([N+](=O)[O-])CCCC2)CCCC1 in this assay.
result: 0 (no)

query: Returns: the outcome recorded for CN1CCC2(CC1)/C(=N/C1CCCCC1)NC(=O)N2c1ccccc1 in this assay.
result: 0 (no)

====

The entries below are paired with their reported GI50.
- Tested on: MDA-MB-435
- Measurement description: NCI tumour cell line growth inhibition, 48 h
Calls of active or inactive are those of the source. Rule as the data show it: active = GI50 up to about 1.1 µM and inactive = higher.

Field: example entries. Status: answers known.
>>> df
                                   compound  metric_name       value_reported
0             Cc1c2oc(=O)c(C#N)cc2c2ccccn12         GI50  > 100 µM (inactive)
1              O=C1c2sccc2C(=O)c2c(CO)csc21         GI50   1.94 µM (inactive)
2  CSc1c(C(=O)Nc2ccc(Cl)cc2)c(N)nn1-c1ccccc1         GI50  > 100 µM (inactive)
3  O=C(Nc1nnc(-c2ccccc2)o1)C(SC(=S)N1CCCCC1)c1ccccc1 (configuration not stated)         GI50   21.3 µM (inactive)
4  N=c1oc2ccc([N+](=O)[O-])cc2cc1C(=O)Nc1ccccn1         GI50   37.6 µM (inactive)

query: Please give the documented GI50 of CNc1cccc2c1C(C)C[C@]1(C)C(=O)Nc3ccccc3[C@H]21 (some centres not stated)
result: 23.5 µM (inactive)

query: Please give the documented GI50 of O=C1C=C(NCCOCCO)C(=O)c2c(O)ccc(O)c21
result: 18.2 µM (inactive)

query: Please give the documented GI50 of N=C(N)NS(=O)(=O)c1ccc(NC(=O)c2cccc3c(NNc4ccc(C(=O)O)cc4)c4ccccc4nc23)cc1
result: 95.7 µM (inactive)

query: Please give the documented GI50 of COc1ccc(/C=C/C(=O)/C=C/c2ccc(OC)cc2)cc1
result: 14.6 µM (inactive)

query: Please give the documented GI50 of CSC1=C(c2ccc(Cl)cc2)SC(N2CCCCC2)N1c1ccc([N+](=O)[O-])cc1 (configuration not stated)
result: 31.6 µM (inactive)

query: Please give the documented GI50 of O=C(O)CN1CCN(CC(=O)O)CCN(CC(=O)O)CCN(CC(=O)O)CC1
result: > 100 µM (inactive)

query: Please give the documented GI50 of O=C1CC(c2ccccc2)C2(C(=O)NC(=S)NC2=O)C(c2ccccc2)C1 (configuration not stated)
result: 55.8 µM (inactive)

====

The entries below are paired with their reported GI50.
- System: ACHN
- Measurement description: NCI tumour cell line growth inhibition, 48 h
Activity calls are given as the source filed them. Rule as the data show it: active = GI50 up to about 1.1 µM and inactive = higher.

Field: example entries. Status: answers known.
                                   molecule       value_reported
0  CCOC(=O)c1csc(C(CSCc2ccc(OC)cc2)N2C(=O)c3ccccc3C2=O)n1 (configuration not stated)  > 100 µM (inactive)
1  CC(=O)OC1=NN=C2COC(c3ccccc3OC(C)=O)=NN2C1   > 50 µM (inactive)
2  CC1(C)O[C@H]2OC(CO)C(OS(C)(=O)=O)[C@H]2O1 (some centres not stated)  > 100 µM (inactive)

query: Please give the documented GI50 of CCCCCCCCCCCCO[PH](=O)OCCCCCCCCCCCC
result: > 100 µM (inactive)

query: Please give the documented GI50 of CCCCCCCCCCCCCCCCP(=O)(O)OCC(N)C(=O)O (configuration not stated)
result: 22.3 µM (inactive)

query: Please give the documented GI50 of COc1ccc(S(=O)(=O)N2C(=O)CCC2C(=O)NN)cc1 (configuration not stated)
result: > 100 µM (inactive)

query: Please give the documented GI50 of COc1cccc(C=C2N=C(c3ccccc3)N(n3c(-c4ccccc4)nc4ccccc4c3=O)C2=O)c1
result: 42.3 µM (inactive)

query: Please give the documented GI50 of Cc1cc(C)nc(NS(=O)(=O)c2ccc(Nc3c4ccc(Cl)cc4nc4c(C(=O)NCCN(C)C)cccc34)cc2)n1
result: > 100 µM (inactive)

query: Please give the documented GI50 of CCCSc1ccc2[nH]c(N3C(=O)/C(=C/c4ccc(O)c(OC)c4)N=C3c3ccccc3)cc2c1
result: 25.2 µM (inactive)

query: Please give the documented GI50 of COc1ccc(N2C(=O)CC(=O)N(C(=O)CCCCCCCCC(=O)N3C(=O)CC(=O)N(c4ccc(OC)cc4)C3=S)C2=S)cc1
result: > 100 µM (inactive)

query: Please give the documented GI50 of NC(=O)C(=CN1CC(=O)NC1=S)C(N)=O
result: > 100 µM (inactive)

query: Please give the documented GI50 of CCOc1ccc(/C=C/c2cc(OC)c(OC)c(OC)c2)cc1
result: 1.56 µM (inactive)

====

- Test system: 786-0
- Measurement description: NCI tumour cell line growth inhibition, 48 h
The source made the active and inactive calls. Rule as the data show it: active = GI50 up to about 1.1 µM and inactive = higher.
Parameter call: string, one of Yes = active, No = inactive

A selection of reference data follows.
Molecule	Target or system	Class label
N#Cc1cccc(C2C(=O)c3ccc(C(=O)c4ccc5c(c4)C(=O)N(c4ccc(Oc6ccc(N7C(=O)c8ccc(C(=O)c9ccc%10c(c9)C(=O)N(c9cccc(C#N)c9)C%10=O)cc8C7=O)cc6)cc4)C5=O)cc3C2=O)c1 (centres undefined)	786-0	No
CCC1=NC(N/N=C/c2ccco2)=N/C1=C\c1ccco1	786-0	No
COc1ccc2nccc(C3=CCC4CCN(C(=O)c5ccccc5)C3C4)c2c1 (centres undefined)	786-0	No
O=C(N/C(=C\c1ccc(/C=C(\NC(=O)c2ccccc2)c2nc3ccccc3s2)cc1)c1nc2ccccc2s1)c1ccccc1	786-0	No
CC12CCC(C1)C(C)(C)C2OC(=O)c1ccccc1N (centres undefined)	786-0	No

query: Returns: the outcome recorded for CCCC(O)c1ccc2[nH]c3c(C)cc([N+](=O)[O-])c(C)c3c2c1 (centres undefined) in this assay.
result: No

====

- Tested on: SNB-75
- Measurement description: NCI tumour cell line growth inhibition, 48 h
Calls of active or inactive are those of the source. Rule as the data show it: active = GI50 up to about 1.1 µM and inactive = higher.
Parameter call: string, one of y = active, n = inactive

A selection of reference data follows.
In [3]: df
Out[3]:
                                   compound  class_label
0    OC1C#CCSCC#C/C=C\1 (centres undefined)            n
1  C#CC1(OC(C)=O)CCC2C3CC=C4C=C(OC(C)=O)CCC4(C)C3CCC21C (centres undefined)            n
2  OCCOCn1cc(Cn2ncc3c(SCc4ccccc4)ncnc32)nn1            n
3  COC(=O)C(=O)C(C(=O)C(=O)Nc1ccccc1C(N)=O)c1nc2ccc(Cl)cc2nc1O (centres undefined)            n
4       COCn1cnc2c(=O)nc(SC)n(-c3ccccc3)c21            n
5  NC(CSCc1ccccc1)C(=O)O (centres undefined)            n

query: Returns: the outcome recorded for O=C1C=CC2(CCC23C=CC(=O)O3)O1 (centres undefined) in this assay.
result: n

query: Returns: the outcome recorded for COc1cccc2c1CCc1ccccc1CC2=O in this assay.
result: n

query: Returns: the outcome recorded for COc1cc(O)c(Cc2ccccc2O)c(O)c1C(=O)CCc1ccccc1 [UVARETIN] in this assay.
result: n

query: Returns: the outcome recorded for COc1cc(Cn2c3c(c4c(CN(C)C)c(O)ccc42)C(=O)c2ccccc2C3=O)cc(OC)c1 in this assay.
result: y

query: Returns: the outcome recorded for O=C(/C=C/c1ccc(O)c(O)c1)NC(CO)C(=O)O (centres undefined) in this assay.
result: n
